Can you tell me growth inhibition for the items I'm about to list?
assay: NCI Yeast Anticancer Drug Screen. Data for the bub3 strain (AID 167); conditions: S. cerevisiae bub3 mutant strain, at 5.0 µM (retest, dose inferred, filed as 0.5), active compounds read high
About 79,000 compounds went through this panel and 15% of them were active in at least one assay; those are over-represented in the sample as a whole.
One number for each entry, in %.

Field: example entries. Status: answers known.
O=C(CCC1OCCO1)Nc1cc(NCc2ccccc2)ccc1OCc1ccccc1; 0
O=[N+]([O-])c1ccc2c(c1)Cc1cc(Cl)ccc1-2; 4

Incoming: For the compound COc1ccc(/C=C2\Sc3scc(-c4ccc([N+](=O)[O-])cc4)[n+]3C2=O)cc1OC , give its measured growth inhibition value.
Outgoing: 9

Values compiled from PubChem BioAssay (NCI).
